Every entry's value here was drawn from PubChem BioAssay (NCI).

System: OVCAR-4 ovarian
Test details: NCI tumour cell line growth inhibition, 48 h
Assay readout: TGI (µM)

[
  {
    "Molecule": "CCN(CC)CCSc1n[nH]c(-c2c[nH]c3nc(C)ccc3c2=O)n1",
    "Qualifier sign": ">",
    "Numeric result": 100
  },
  {
    "Molecule": "CC(C)(C)OC(=O)N1CC(Cn2cc(C(F)(F)F)c3c(Cl)ncnc32)C1",
    "Qualifier sign": "=",
    "Numeric result": 23.2
  },
  {
    "Molecule": "c1ccc(CCCNc2nnnc3ccccc23)cc1",
    "Qualifier sign": ">",
    "Numeric result": 100
  },
  {
    "Molecule": "CC(OC1CC(=O)CC2C(=O)C=CC(=O)C12)c1ccccc1 (stereo not given)",
    "Qualifier sign": "=",
    "Numeric result": 32.4
  },
  {
    "Molecule": "COc1cc2c(cc1OC)C(=O)Cc1ccc3c(c1CNCC2)OCO3",
    "Qualifier sign": ">",
    "Numeric result": 100
  },
  {
    "Molecule": "C=C(C)[C@@H]1CC[C@]2(C(=O)Nc3ccccn3)CC[C@]3(C)[C@H](CC[C@@H]4[C@@]5(C)CCCNC(C)(C)[C@@H]5CC[C@]43C)[C@@H]12",
    "Qualifier sign": "=",
    "Numeric result": 2.99
  },
  {
    "Molecule": "Cc1ccc(/C=N/Nc2cc(C)c3ccccc3n2)s1",
    "Qualifier sign": ">",
    "Numeric result": 100
  },
  {
    "Molecule": "CC1=C(C(=O)NNC(=O)C(N)=O)CC(C(=O)NNC(=O)C(N)=O)=C(C)N1",
    "Qualifier sign": ">",
    "Numeric result": 100
  },
  {
    "Molecule": "CN(C)Cc1cc(C(=O)/C=C/c2ccc(Br)cc2)cc(CN(C)C)c1O",
    "Qualifier sign": "=",
    "Numeric result": 28.8
  },
  {
    "Molecule": "CCN(CC)C(=S)SC(=S)N(CC)CC",
    "Qualifier sign": ">",
    "Numeric result": 100
  }
]
